- study target: human RORγ-LBD (Homo sapiens)
- Construct: made in house; host or cells: E. coli (BL-21)
- Sequence (P51449 262-518): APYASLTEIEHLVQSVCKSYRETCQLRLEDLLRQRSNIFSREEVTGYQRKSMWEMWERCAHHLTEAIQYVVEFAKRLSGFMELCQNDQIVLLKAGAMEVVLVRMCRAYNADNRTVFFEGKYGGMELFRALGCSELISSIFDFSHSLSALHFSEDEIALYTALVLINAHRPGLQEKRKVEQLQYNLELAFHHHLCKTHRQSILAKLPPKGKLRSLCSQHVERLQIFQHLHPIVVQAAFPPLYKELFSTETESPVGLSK
- test: ROR gamma coactivator peptide recruitment Alphascreen assay (RORγ-LBD binding to GRIP1 coactivator peptide)
- Format: biochemical
- assay context: 5 nM human RORγ-LBD, 30 nM 7-β-hydroxycholesterol, 50 nM biotinylated GRIP1 coactivator peptide, overnight incubation at room temperature; read-out: result (pIC50, RORγ coactivator peptide recruitment Alphascreen assay) (converted)
Please respond with reported log10 of IC50 for every item in the list.
All values: base-10 log of IC50 in µM.

Look over these answered cases.
{"molecule": "Cc1cc(Cl)c(C(=O)CN(C[C@@H]2CC(C)(C)O2)C(=O)c2cnn([C@H]3CC[C@](C)(C(=O)O)CC3)c2C(F)(F)F)c(Cl)c1", "log10 of IC50": -2.00}
{"molecule": "CO[C@@H](CN(CC(C)(C)C)C(=O)c1cnn([C@H]2CC[C@H](C(=O)O)CC2)c1C(F)(F)F)c1c(Cl)cc(C)cc1Cl", "log10 of IC50": 0.03}
{"molecule": "CC1(C)CCC(CN(CCc2c(Cl)cncc2Cl)C(=O)c2cnn([C@H]3CC[C@H](C(=O)O)CC3)c2C(F)(F)F)CC1", "log10 of IC50": -1.95}
{"molecule": "Cc1cc(Cl)c(C(=O)CN(CC2(C)CCC2)C(=O)c2cnn([C@H]3CC[C@H](CC(=O)O)CC3)c2C(F)(F)F)c(Cl)c1", "log10 of IC50": -3.15}
{"molecule": "Cc1ncc(Cl)c(C(=O)CN(Cc2cc(F)cc(F)c2)C(=O)c2cnn([C@H]3CC[C@](C)(C(=O)O)CC3)c2C(F)(F)F)c1Cl", "log10 of IC50": -2.40}
{"molecule": "C[C@]1(C(=O)O)CC[C@H](n2ncc(C(=O)N(CC(=O)c3c(Cl)cc(F)cc3Cl)CC3CCC3)c2C(F)(F)F)CC1", "log10 of IC50": -2.40}
{"molecule": "CC(C)(C)CN(C[C@@H](O)c1c(Cl)cccc1Cl)C(=O)c1cnn([C@H]2CC[C@H](C(=O)O)CC2)c1C(F)(F)F", "log10 of IC50": 0.41}
{"molecule": "C[C@]1(C(=O)O)CC[C@H](n2ncc(C(=O)N(CC(=O)c3c(Cl)cccc3Cl)[C@H]3CCC34CCCC4)c2C(F)(F)F)CC1 [Example 626]", "log10 of IC50": -2.55}
{"molecule": "O=C(c1cnn([C@H]2CC[C@@H](C(=O)O)CC2)c1C(F)(F)F)N(CCc1c(Cl)cncc1Cl)[C@@H]1CCC12CCC2", "log10 of IC50": -0.52}
{"molecule": "O=C(CN(CC1(F)CCCC1)C(=O)c1cnn(C2CCC(C(=O)O)CC2)c1C(F)(F)F)c1c(Cl)cccc1Cl (stereo in doubt)", "log10 of IC50": -1.31}

Below are some molecules; for each one, tell me its log10 of IC50.
1. CC(C)(C)CN(CCc1c(Cl)cn2ncnc2c1Cl)C(=O)c1cnn([C@H]2CC[C@](C)(C(=O)O)CC2)c1C(F)(F)F
2. C[C@H]1C[C@@H](n2ncc(C(=O)N(CC(=O)c3c(Cl)cncc3Cl)C[C@]34CC[C@H](CC3)O4)c2C(F)(F)F)CC[C@@H]1C(=O)O
3. CC1(CN(CCc2c(Cl)cncc2Cl)C(=O)c2cnn([C@H]3CC[C@](C)(C(=O)O)CC3)c2C(F)(F)F)CCC1

Resp:
[-0.52, -1.61, -2.43]
